Source listed as patent US20260373248A1.

# experimental protocol: Delivery vehicle size and polydispersity by dynamic light scattering
# Format: physicochemical
# condition set: DLS in PBS; peptoid:DSPC:Cholesterol:DMG-PEG2000 weight ratio 20:1.79:7.16:1.84, mRNA
Starred links: 1 amine or outer side, 2 acyl side, 3 side chain; linkers in the order of their positions; H or OH if unused. Non-standard residues stand in square brackets, D forms with d. Residues, ends and D or L forms follow the SMILES beside them. Gly(N-(3-decanoyloxypropyl)) = CCCCCCCCCC(=O)OCCCNCC(=O)O; Gly(N-(CH2)3O-octanoyl) = CCCCCCCC(=O)OCCCNCC(=O)O; N(2-ethylhexyl)Gly = CCCCC(CC)CNCC(=O)O; X1 = CCCCC(CC)CSSCCN(CC(=O)[*:2])[*:1]; N(CH(CH2OH)2)Gly = O=C(O)CNC(CO)CO; NDecylGly = CCCCCCCCCCNCC(=O)O
Catalogue of PDI values
// no unit string in output, number only

Worked set:
CCCCCCCC(=O)OCCCN(CC(=O)N(CCc1ccccc1)CC(=O)N(CC(=O)N(CCCN1CCOCC1)CC(=O)N(CC(=O)N(CCc1ccccc1)CC(=O)N(CCCOC(=O)CCCCCCC)CC(=O)N(CC(N)=O)CC(CC)CCCC)CC(CC)CCCC)CC(CC)CCCC)C(=O)CN(C=O)CC(CC)CCCC (stereo not shown) = 0.118
CCCCCCCCCC(=O)OCCCN(CC(N)=O)C(=O)CN(CC(CC)CCCC)C(=O)CN(CCCOC(=O)CCCCCCCCC)C(=O)CN(CCCOC(=O)CCCCCCCCC)C(=O)CN(CC(CC)CCCC)C(=O)CN(CCCOC(=O)CCCCCCCCC)C(=O)CNC(CO)CO (stereo not shown) [Compound 53] (H-[N(CH(CH2OH)2)Gly][Gly(N-(3-decanoyloxypropyl))][N(2-ethylhexyl)Gly][Gly(N-(3-decanoyloxypropyl))][Gly(N-(3-decanoyloxypropyl))][N(2-ethylhexyl)Gly][Gly(N-(3-decanoyloxypropyl))]-NH2) = 0.153
CCCCCCCCCCN(CC(=O)N(CCSSCC(CC)CCCC)CC(=O)N(CCCOC(=O)CCCCCCC)CC(N)=O)C(=O)CN(CCSSCC(CC)CCCC)C(=O)CN(CCCOC(=O)CCCCCCC)C(=O)CN(CC(CC)CCCC)C(=O)CNC(CO)CO (stereo not shown) [Compound 130] (H-[N(CH(CH2OH)2)Gly][N(2-ethylhexyl)Gly][Gly(N-(CH2)3O-octanoyl)][X1][NDecylGly][X1][Gly(N-(CH2)3O-octanoyl)]-NH2) = 0.086

Let's switch to this molecule now.
Query block: Could you tell me which PDI is on file for CCCCCCCC(=O)OCCCN(CC(=O)N(CCCOC(=O)CCCCCCC)CC(=O)N(CCSSCC(CC)CCCC)CC(=O)N(CCCOC(=O)CCCCCCC)CC(=O)N(CCCOC(=O)CCCCCCC)CC(=O)N(CCSSCC(CC)CCCC)CC(N)=O)C(=O)CNC(CO)CO (stereo not shown) [Compound 128] (H-[N(CH(CH2OH)2)Gly][Gly(N-(CH2)3O-octanoyl)][Gly(N-(CH2)3O-octanoyl)][X1][Gly(N-(CH2)3O-octanoyl)][Gly(N-(CH2)3O-octanoyl)][X1]-NH2) ?
Result block: 0.098
